Test system: RARa homodimer (NR concentration 270 nM)
Assay: PBM binding z-score (relative to random genomic background probes); higher = stronger binding; sequences stand for … in GC…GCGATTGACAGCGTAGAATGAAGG
PBM binding z-score vs 0.04: at or above is 1.0, below is 0.0.

Worked cases, answers included:
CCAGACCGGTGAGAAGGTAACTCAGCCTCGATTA: 1.0
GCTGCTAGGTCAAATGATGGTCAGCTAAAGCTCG: 0.0
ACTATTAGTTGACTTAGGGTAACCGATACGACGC: 1.0
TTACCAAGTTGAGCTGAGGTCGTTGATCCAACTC: 0.0
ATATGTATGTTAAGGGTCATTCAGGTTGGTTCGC: 1.0

Problem: Is reported PBM binding z-score greater than or equal to 0.04 here: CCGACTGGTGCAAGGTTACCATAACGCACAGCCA
Result: 1.0

Problem: What do you have for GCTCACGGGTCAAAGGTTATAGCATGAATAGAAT ?
Result: 1.0

Problem: What do you have for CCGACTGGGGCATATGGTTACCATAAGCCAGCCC ?
Result: 0.0

Problem: What do you have for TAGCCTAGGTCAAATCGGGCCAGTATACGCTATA ?
Result: 0.0

* * *

For each of the sequences below, state its PBM binding z-score.
Tested on: PPARg:RXRa 30nM:10nM, anti-RXR (NR concentration 30 nM, RXRa partner concentration 10 nM)
Test: PBM binding z-score (relative to random genomic background probes); higher = stronger binding; sequences stand for … in GC…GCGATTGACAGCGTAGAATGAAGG

Completed entries (count: 10):
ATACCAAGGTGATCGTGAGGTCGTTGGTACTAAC: -0.201
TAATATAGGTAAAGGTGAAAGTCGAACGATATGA: 4.8
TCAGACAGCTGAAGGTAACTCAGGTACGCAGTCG: 2.91
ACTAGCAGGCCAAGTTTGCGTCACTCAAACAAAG: -0.74
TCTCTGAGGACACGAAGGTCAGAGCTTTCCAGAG: 2.59
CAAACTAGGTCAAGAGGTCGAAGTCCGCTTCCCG: 5.95
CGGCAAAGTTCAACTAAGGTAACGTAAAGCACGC: 1.6
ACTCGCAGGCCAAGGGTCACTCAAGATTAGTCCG: 4.12
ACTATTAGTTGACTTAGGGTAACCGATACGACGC: 0.442
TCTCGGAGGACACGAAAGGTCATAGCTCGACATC: 3.01

Batch request: PBM binding z-score for each of the following sequences.
1. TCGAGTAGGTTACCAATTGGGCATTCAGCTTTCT
2. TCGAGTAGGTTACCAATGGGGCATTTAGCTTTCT
3. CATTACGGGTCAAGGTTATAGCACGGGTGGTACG
4. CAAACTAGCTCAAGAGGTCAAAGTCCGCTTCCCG

Result:
0.909
1.33
2.22
1.52

Problem: Fill blank: measured PBM binding z-score of the sequence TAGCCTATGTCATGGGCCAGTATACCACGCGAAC is ____.
Result: -0.369

* * *

For each of the sequences below, state its PBM binding z-score.
Tested on: PPARg DBDmut IVT, anti-PPARg (DBD mutation: PPARg1 K132A/R137A, NR concentration 270 nM)
Assay: PBM binding z-score (relative to random genomic background probes); higher = stronger binding; sequences stand for … in GC…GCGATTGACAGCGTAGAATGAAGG
Numbers only.

Batch request: PBM binding z-score for each of the following sequences.
1. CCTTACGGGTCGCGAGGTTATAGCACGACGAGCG
2. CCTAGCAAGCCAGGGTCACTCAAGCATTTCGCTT
3. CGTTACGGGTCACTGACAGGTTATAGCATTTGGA
4. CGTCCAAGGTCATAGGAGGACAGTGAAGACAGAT
5. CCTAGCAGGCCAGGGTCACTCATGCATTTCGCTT
6. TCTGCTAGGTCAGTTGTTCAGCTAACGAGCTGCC
7. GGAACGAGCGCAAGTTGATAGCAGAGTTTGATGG
8. CGTACAAGGTCAGAGAGGTCAGTGAATGCCGAGT

Result:
1: -0.857; 2: -1.46; 3: 0.284; 4: 0.524; 5: -1.56; 6: 0.257; 7: -1.98; 8: 1.93

Batch request: PBM binding z-score for each of the following sequences.
1. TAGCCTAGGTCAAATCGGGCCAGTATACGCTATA
2. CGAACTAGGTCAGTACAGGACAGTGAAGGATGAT

Result:
1. 0.237
2. 0.573

* * *

Tested on: LXRb homodimer (NR concentration 270 nM)
Assay: PBM binding z-score (relative to random genomic background probes); higher = stronger binding; sequences stand for … in GC…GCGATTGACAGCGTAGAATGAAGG
Category | rule: reported PBM binding z-score within range, see lo (below -0.3), med (-0.3 to below 0.4), hi (0.4 or more)

Problem: Returns: class label. Input: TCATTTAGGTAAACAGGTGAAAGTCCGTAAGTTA
Result: hi

Problem: What do you have for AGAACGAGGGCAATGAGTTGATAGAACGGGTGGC ?
Result: lo

Problem: What do you have for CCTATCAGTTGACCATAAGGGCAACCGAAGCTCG ?
Result: hi

Problem: What do you have for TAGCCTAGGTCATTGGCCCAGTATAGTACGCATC ?
Result: med

Problem: What do you have for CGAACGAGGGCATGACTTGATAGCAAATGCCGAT ?
Result: lo

Problem: What do you have for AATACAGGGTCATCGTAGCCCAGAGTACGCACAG ?
Result: hi

Problem: What do you have for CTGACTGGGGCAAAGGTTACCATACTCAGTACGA ?
Result: lo

* * *

Tested on: RARb homodimer (NR concentration 270 nM)
Assay: PBM binding z-score (relative to random genomic background probes); higher = stronger binding; sequences stand for … in GC…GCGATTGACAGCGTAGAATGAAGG
measurement type: PBM binding z-score
Answers are plain numbers.

Completed entries (count: 3):
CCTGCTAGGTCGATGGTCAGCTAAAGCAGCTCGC: 0.8
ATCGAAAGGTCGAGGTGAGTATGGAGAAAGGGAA: 2.76
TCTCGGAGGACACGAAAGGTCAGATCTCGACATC: 4.71

Batch request: PBM binding z-score for each of the following sequences.
1. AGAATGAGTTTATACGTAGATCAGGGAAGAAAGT
2. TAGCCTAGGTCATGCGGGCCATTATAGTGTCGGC
3. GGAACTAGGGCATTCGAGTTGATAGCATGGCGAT
4. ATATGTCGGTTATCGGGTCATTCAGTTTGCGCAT
5. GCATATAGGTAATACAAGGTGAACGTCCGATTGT
6. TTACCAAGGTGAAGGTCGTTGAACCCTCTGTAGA
7. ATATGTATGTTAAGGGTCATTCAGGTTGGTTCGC
8. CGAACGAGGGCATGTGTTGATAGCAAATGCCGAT

Result:
1. -0.157
2. 3.04
3. 0.555
4. 2.64
5. 0.986
6. 2.16
7. 3.82
8. 0.926

Batch request: PBM binding z-score for each of the following sequences.
1. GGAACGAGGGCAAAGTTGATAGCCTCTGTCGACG
2. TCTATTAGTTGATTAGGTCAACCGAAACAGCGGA
3. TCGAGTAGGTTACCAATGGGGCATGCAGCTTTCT
4. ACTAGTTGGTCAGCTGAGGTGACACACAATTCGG
5. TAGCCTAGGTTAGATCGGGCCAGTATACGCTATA
6. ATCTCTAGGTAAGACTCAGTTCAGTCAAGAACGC
7. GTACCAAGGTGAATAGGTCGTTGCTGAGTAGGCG

Result:
1.42
3.09
0.595
1.74
-0.0792
0.982
1.71

Batch request: PBM binding z-score for each of the following sequences.
1. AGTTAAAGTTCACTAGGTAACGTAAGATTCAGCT
2. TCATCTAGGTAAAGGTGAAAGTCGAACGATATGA
3. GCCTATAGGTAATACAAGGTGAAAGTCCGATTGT

Result:
[3.53, 1.65, 0.782]

Batch request: PBM binding z-score for each of the following sequences.
1. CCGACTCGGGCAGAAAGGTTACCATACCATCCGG
2. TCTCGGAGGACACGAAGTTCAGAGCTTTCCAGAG
3. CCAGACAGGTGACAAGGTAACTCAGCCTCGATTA

Result:
1: 1.59; 2: 2.07; 3: 0.759

Batch request: PBM binding z-score for each of the following sequences.
1. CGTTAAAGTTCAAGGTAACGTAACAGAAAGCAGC
2. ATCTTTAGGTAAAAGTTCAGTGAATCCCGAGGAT
3. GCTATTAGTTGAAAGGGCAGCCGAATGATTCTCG
4. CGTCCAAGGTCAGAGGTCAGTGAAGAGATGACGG
5. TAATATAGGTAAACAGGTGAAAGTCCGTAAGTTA

Result:
1. 3.54
2. 2.61
3. 1.51
4. 5.38
5. 0.737

Batch request: PBM binding z-score for each of the following sequences.
1. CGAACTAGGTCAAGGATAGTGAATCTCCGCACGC
2. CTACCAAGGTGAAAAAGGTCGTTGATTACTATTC

Result:
1. 3.08
2. 2.39

Batch request: PBM binding z-score for each of the following sequences.
1. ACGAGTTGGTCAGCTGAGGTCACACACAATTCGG
2. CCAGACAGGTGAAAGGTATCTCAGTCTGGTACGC
3. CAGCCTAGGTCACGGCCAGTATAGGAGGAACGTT
4. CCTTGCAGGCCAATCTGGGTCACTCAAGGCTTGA

Result:
4.17
0.311
3.53
2.28
